Provide the reported Curve Class (counterscreen) of each item.
- assayed-system: GST-CIB1 : F-scrambled peptide (Homo sapiens)
- Construct: made in house; host or cells: BL-21 plus RIL cells (E. coli)
- Sequence (Q99828 1-191): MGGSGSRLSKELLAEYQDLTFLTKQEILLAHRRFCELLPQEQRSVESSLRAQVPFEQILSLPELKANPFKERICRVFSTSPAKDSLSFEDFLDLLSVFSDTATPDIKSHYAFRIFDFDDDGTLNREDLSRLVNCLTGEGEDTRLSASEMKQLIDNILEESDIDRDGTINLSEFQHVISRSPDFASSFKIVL
- assay-overview: FP scrambled-peptide counter screen, 1536-well format
- Format: binding
- experimental-conditions: counterscreen, qHTS curve class; negative sign = inhibitory curve
Give bare numbers.

Here's what some known entries look like.
{"compound": "CCC(=O)NC(c1cccs1)c1cc(Br)c2cccnc2c1O (centres unmarked) [NCGC00183689-01]", "assay-readout": "Curve Class (counterscreen)", "reported": 4}
{"compound": "Cl.O=[N+]([O-])c1cccc(CNc2ccc(S(=O)(=O)Nc3nccs3)cc2)c1O [NCGC00273554-01]", "assay-readout": "Curve Class (counterscreen)", "reported": -2.2}

Dear reader, for each entry below, please note its Curve Class (counterscreen).
1. O=c1nc(-c2ccccn2)sc2ccccc12 [NCGC00387147-01]
2. CCOC(=O)c1nn(-c2ccc(OC)cc2)c(=O)c2c(N)scc12 [NCGC00053250-03]
3. O=C(O)C(F)(F)F.O=C1Nc2ccccc2/C1=N/NC(=S)Nc1ccccc1 [NCGC00229542-01]
4. COC[C@H]1OC(=O)c2coc3c2[C@@]1(C)C1=C(C3=O)[C@@H]2CCC(=O)[C@@]2(C)C[C@H]1OC(C)=O [NCGC00163485-03]
5. COc1ccc(S(=O)(=O)Nc2cnccc2C(=O)Nc2nc(-c3ccccc3)cs2)cc1.O=C(O)C(F)(F)F [NCGC00344944-01]
6. Cc1cc(C)nc(NC(=S)N2CCN(c3ccc4nsnc4c3)CC2)c1.O=C(O)C(F)(F)F [NCGC00244160-01]

1. 4
2. -2.2
3. -1.2
4. 4
5. -2.2
6. -2.2

###

Provide the reported pIC50 of each item.
- assayed-system: GST-CIB1 : F-scrambled peptide (Homo sapiens, UniProt Q99828)
- Construct: made in house; host or cells: BL-21 plus RIL cells (E. coli)
- assay-overview: FP scrambled-peptide counter screen, 1536-well format
- Assay type: binding
- experimental-conditions: scrambled-peptide counterscreen; read-out: COUNTERSCREEN IC50
One number for each entry, as −log10 of the molar value.

Here's what some known entries look like.
{"compound": "Brc1c(Br)c(Br)c2[nH]nnc2c1Br [NCGC00092352-04, 4,5,6,7-tetrabromobenzotriazole, reference compound]", "assayed-system": "GST-CIB1 : F-scrambled peptide (Homo sapiens, UniProt Q99828)", "pIC50": 4.10}
{"compound": "CC(C)NC(=S)N/N=C1\\C(=O)Nc2ccccc21.O=C(O)C(F)(F)F", "assayed-system": "GST-CIB1 : F-scrambled peptide (Homo sapiens, UniProt Q99828)", "pIC50": 4.95}
{"compound": "COc1ccc(C(=O)Nc2nc(-c3ccccc3)cs2)c(NS(=O)(=O)c2ccc(C)cc2)c1.O=C(O)C(F)(F)F", "assayed-system": "GST-CIB1 : F-scrambled peptide (Homo sapiens, UniProt Q99828)", "pIC50": 4.15}
{"compound": "CCOC(=O)c1nnc(NS(=O)(=O)c2ccc(NC(=O)Cc3ccc(Cl)c(Cl)c3)cc2)s1.O=C(O)C(F)(F)F", "assayed-system": "GST-CIB1 : F-scrambled peptide (Homo sapiens, UniProt Q99828)", "pIC50": 4.35}
{"compound": "Cc1c(C)n(Cc2ccc(-c3ccccc3C(=O)O)cc2)c2ccc(C(=O)N[C@@H](C)c3ccc([N+](=O)[O-])cc3)cc12", "assayed-system": "GST-CIB1 : F-scrambled peptide (Homo sapiens, UniProt Q99828)", "pIC50": 4.05}
{"compound": "CCC(OC(=O)c1ccc(S(C)(=O)=O)c([N+](=O)[O-])c1)C(=O)NC1C2CC3CC(C2)CC1C3 (centres unmarked)", "assayed-system": "GST-CIB1 : F-scrambled peptide (Homo sapiens, UniProt Q99828)", "pIC50": 4.50}

Dear reader, for each entry below, please note its pIC50.
1. Cc1cc(Nc2c(Nc3nnc(-c4ccncc4)s3)c(=O)c2=O)ccc1Cl.O=C(O)C(F)(F)F
2. Cc1ccc(S(=O)(=O)Nc2cnccc2C(=O)Nc2nc(-c3ccc(Cl)cc3)cs2)cc1.O=C(O)C(F)(F)F
3. CN(C)[C@H]1CCN(c2cccc(Nc3nn4c(=O)c5ccccc5nc4s3)c2)C1.O=C(O)C(F)(F)F
4. O=C(O)C(F)(F)F.O=c1c2ccccc2nc2sc(Nc3cccc(N4CCN5CCCCC5C4)c3)nn12 (centres unmarked)
5. O=C(c1cccs1)c1no[n+]([O-])c1C(=O)c1cccs1
6. Oc1ccc2ccccc2c1SSc1c(O)ccc2ccccc12 [NCGC00186047-02, IPA-3, reference compound]

1. 4.35
2. 4.05
3. 4.25
4. 4.25
5. 4.60
6. 4.50

Dear reader, for each entry below, please note its pIC50.
1. COC(=O)[C@]12CCC(C)(C)C[C@H]1[C@H]1C(=O)C=C3[C@@]4(C)C=C(C#N)C(=O)C(C)(C)[C@@H]4CC[C@@]3(C)[C@]1(C)CC2
2. COc1ccc2c(c1)C=C1Cn3c-2c(C2CCCCC2)c2ccc(cc23)C(=O)NS(=O)(=O)N(C)CCOCCN(C)C1=O

[4.85, 4.15]

###

- assayed-system: GST-CIB1 : F-scrambled peptide (Homo sapiens, UniProt Q99828)
- Construct: made in house; host or cells: BL-21 plus RIL cells (E. coli)
- assay-overview: FP scrambled-peptide counter screen, 1536-well format
- Format: binding
- experimental-conditions: counterscreen, qHTS curve class; negative sign = inhibitory curve
assay-readout: Curve Class (counterscreen)
Give bare numbers.

Here's what some known entries look like.
{"smiles-text": "Cc1ccccc1C(=O)N1CCc2cc(-c3nc(NC(=O)Cc4ccc(OCCOCCOCCN)cc4)sc3C)ccc21.O=C(O)C(F)(F)F", "Curve Class (counterscreen)": -2.4}
{"smiles-text": "O=C(O)c1ccc(-n2cccc2/C=C2\\SC(=O)N(Cc3cccc(Cl)c3)C2=O)cc1", "Curve Class (counterscreen)": -2.2}
{"smiles-text": "CN(C)CCCn1cc(C2=C(c3c[nH]c4ccccc34)C(=O)NC2=O)c2ccccc21", "Curve Class (counterscreen)": -2.2}

Field: next molecule
Query: Curve Class (counterscreen); subject: C[C@H](Cc1ccc(O)c(O)c1)[C@@H](C)Cc1ccc(O)c(O)c1
-1.2

###

- assayed-system: CIB1 and αIIb interaction (CIB1-GST : F-αIIb peptide) (Homo sapiens)
- Construct: made in house; host or cells: BL-21 plus RIL cells (E. coli)
- Sequence (Q99828 1-191): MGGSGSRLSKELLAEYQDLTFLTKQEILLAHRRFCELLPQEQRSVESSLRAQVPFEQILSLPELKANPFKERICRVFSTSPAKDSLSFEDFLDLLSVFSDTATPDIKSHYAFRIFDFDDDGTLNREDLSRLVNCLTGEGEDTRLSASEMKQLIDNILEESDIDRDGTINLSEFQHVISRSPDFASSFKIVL
- assay-overview: FP assay, 1536-well qHTS format (primary and confirmatory screen)
- Type: binding
- experimental-conditions: confirmatory screen, qHTS curve class; negative sign = inhibitory curve
assay-readout: CONFIRMATORY SCREEN Curve Class
Numbers only.

Here's what some known entries look like.
{"smiles-text": "COc1cc(C(=O)NS(=O)(=O)c2ccccc2C)ccc1Cc1cn(C)c2ccc(NC(=O)OC3CCCC3)cc12", "CONFIRMATORY SCREEN Curve Class": -1.2}
{"smiles-text": "O=C(O)C(F)(F)F.O=c1c2ccccc2nc2sc(NS(=O)(=O)c3ccc4c(c3)CCC4)nn12", "CONFIRMATORY SCREEN Curve Class": -1.2}
{"smiles-text": "O=[N+]([O-])c1cnc(Sc2nnc(O)n2-c2ccc3c(c2)OCCO3)s1", "CONFIRMATORY SCREEN Curve Class": -1.4}
{"smiles-text": "CCOC(=O)c1ccc(O)c2ncc(-c3ccc(C(=N)N)cc3)cc12.O=C(O)C(F)(F)F", "CONFIRMATORY SCREEN Curve Class": -2.2}

Dear reader, for each entry below, please note its CONFIRMATORY SCREEN Curve Class.
1. O=C(Nc1nc(-c2ccccc2)cs1)c1ccncc1NS(=O)(=O)c1cccc2cccnc12.O=C(O)C(F)(F)F
2. Cc1ccc(S(=O)(=O)Nc2cnccc2C(=O)Nc2nc(-c3nc4ccccc4s3)cs2)cc1.O=C(O)C(F)(F)F
3. Cc1ccc(-c2cc(-c3nn(-c4nc(C(=O)O)cs4)c(CC4CC4)c3Cc3ccc(S(N)(=O)=O)c(F)c3)ccc2F)s1.Cl

-2.2
-1.1
-2.4
